assay: qHTS assay to identify small molecule agonists of the estrogen related receptor signaling pathway with the pleiotropic PPARgamma coactivator (PGC) from Tox21 10K library (AID 1224842); settings: PGC/ERR reporter cell line, luciferase ONE-Glo, 18 h; series mostly up to 92.4 µM; also: nearly all actives have a fitted effect of over 15% in size; as to activation: % is scaled to controls: 0 for no effect and ±100 for the full control effect
Inconclusive results are not listed. Active and inactive are the calls of the source. Calls follow the shape of the dose curve; as a rule, active = well fitted activation curve with a large enough effect in the repeat runs; inconclusive = weak or mixed curves, or effect the other way; inactive = no such curve, though single readings can be large or run the other way.
Possible outcomes: 1 (yes) for active, 0 (no) for inactive

- Compound: "CC(=O)OCCN(CCOC(C)=O)c1ccc(N=Nc2ccc([N+](=O)[O-])cc2C#N)cc1"
  Category Label: "0 (no)"
- Compound: "CCCC(C(=O)OCCN(CC)CC)(c1ccccc1)c1ccccc1"
  Category Label: "0 (no)"
- Compound: "CC(=O)Nc1ccc(C)cc1C"
  Category Label: "0 (no)"
- Compound: "O=C1c2ccccc2C(=O)C1c1ccc(Br)cc1"
  Category Label: "1 (yes)"
- Compound: "CCOC(=O)/C=C/C(=O)OCC"
  Category Label: "0 (no)"
- Compound: "CC1=C(Br)C(=O)C(Br)=C/C1=C(/c1ccccc1S(=O)(=O)O)c1cc(Br)c(O)c(Br)c1C"
  Category Label: "0 (no)"
- Compound: "CN(C(=O)CN(CCO)CC(=O)N(C)C(C)(C)Cc1ccccc1)C(C)(C)Cc1ccccc1"
  Category Label: "0 (no)"
- Compound: "C=Cc1ccc(S(=O)(=O)O)cc1"
  Category Label: "0 (no)"
- Compound: "COc1cc(C(=O)NC2CCN(C)CC2)ccc1Nc1ncc2c(n1)N(C1CCCC1)CC(F)(F)C(=O)N2C"
  Category Label: "1 (yes)"
- Compound: "O=C(O)CCc1nc(-c2ccccc2)c(-c2ccccc2)o1"
  Category Label: "0 (no)"
- Compound: "CCCCCC[C@@H](O)C/C=C\\CCCCCCCC(=O)OCC(O)CO (stereo partly specified)"
  Category Label: "0 (no)"

---

target: Estrogen receptor beta (Homo sapiens); test: qHTS assay to identify small molecule antagonists of the estrogen receptor beta (ER-beta) signaling pathway (AID 1259378); conditions: ER-beta-UAS-bla HEK293T, beta-lactamase FRET ratio, 16 h; series mostly up to 92.4 µM
Results filed as inconclusive are left out. Calls of active or inactive are those of the source. The call rests on the fitted dose curve; in most records, active means well fitted inhibition curve with a large enough effect in the signal ratio in the repeat runs (not every such curve was filed as active); inconclusive means weak or mixed curves, or effect the other way; inactive means no such curve, though single readings can be large or run the other way; the % refers to the signal ratio.
Possible outcomes: True = active, False = inactive

- Compound: "Oc1c(I)cc(I)c2cccnc12"
  Category Label: "True"
- Compound: "COc1cc(C(=O)NCCCCCC(=O)O)cc(OC)c1OC"
  Category Label: "False"
- Compound: "CCCC(=O)C(=O)O"
  Category Label: "False"
- Compound: "Cc1cc2c(OCC(CNC(C)(C)C)OC(=O)c3ccccc3)cccc2[nH]1 (centres undefined)"
  Category Label: "False"
- Compound: "COc1ccccc1N1CCN(CC(O)COc2cccc3ccccc23)CC1 (centres undefined)"
  Category Label: "True"
- Compound: "O=C(O)c1ccc(OCCCOc2ccc(C(=O)O)cc2)cc1"
  Category Label: "False"
- Compound: "CC(C)(C)C(=O)C(=O)O"
  Category Label: "False"
- Compound: "CCc1ccccc1"
  Category Label: "False"
- Compound: "CCCCCCC(C)(C)C(=O)O"
  Category Label: "False"
- Compound: "Cc1ccccc1S"
  Category Label: "False"
- Compound: "CCCCCCNC(=O)n1cc(F)c(=O)[nH]c1=O"
  Category Label: "False"
- Compound: "COc1ccccc1NC(=O)c1cc2ccccc2cc1O"
  Category Label: "True"
- Compound: "O=c1[nH]ncc2ccccc12"
  Category Label: "False"
- Compound: "O=C(CCCN1CC=C(n2c(=O)[nH]c3ccccc32)CC1)c1ccc(F)cc1"
  Category Label: "False"

---

test: qHTS assay to identify small molecule antagonists of the peroxisome proliferator-activated receptor delta (PPARd) signaling pathway - cell viability counter screen (AID 743213); conditions: PPARd-bla HEK293H viability, CellTiter-Glo luminescence, 17 h; series mostly up to 62 µM; also: nearly all actives have a fitted effect of over 50% in size
Records with an inconclusive call do not appear. Active and inactive are the calls of the source. Calls come from the whole dose curve; as a rule, active = well fitted cell-killing curve with a large enough effect in the repeat runs; inconclusive = weak or mixed curves; inactive = no such curve, though single readings can be large or run the other way.
Possible outcomes: active, inactive

- Compound: "CC1(C)[C@H](C(=O)O)N2C(=O)C[C@H]2S1(=O)=O"
  Category Label: "inactive"
- Compound: "CN(C(=O)CN(CCO)CC(=O)N(C)C(C)(C)Cc1ccccc1)C(C)(C)Cc1ccccc1"
  Category Label: "inactive"
- Compound: "COc1cc(C(=O)NCCCCCC(=O)O)cc(OC)c1OC"
  Category Label: "inactive"
- Compound: "OC(CCN1CCCC1)(c1ccccc1)C1CCCCC1 (stereo not given)"
  Category Label: "inactive"
- Compound: "O=C(O)CCC(=O)C(=O)O"
  Category Label: "inactive"
- Compound: "N#[N+]c1ccc2c(S(=O)(=O)[O-])cccc2c1O"
  Category Label: "inactive"
- Compound: "Cc1cc(C)cc(N)c1"
  Category Label: "inactive"
- Compound: "CCC1CO1 (stereo not given)"
  Category Label: "inactive"
- Compound: "CN1C(C(=O)Nc2ccccn2)=C(O)c2sccc2S1(=O)=O"
  Category Label: "inactive"
- Compound: "CC1=C(CC=O)C(C)(C)CCC1"
  Category Label: "inactive"
- Compound: "COc1ncnc(NS(=O)(=O)c2ccc(N)cc2)c1OC"
  Category Label: "inactive"
- Compound: "CN1CC(=O)N2[C@H](c3ccc4c(c3)OCO4)c3[nH]c4ccccc4c3C[C@@H]2C1=O"
  Category Label: "inactive"
- Compound: "Cc1[nH]cnc1CN1CCc2c(c3ccccc3n2C)C1=O"
  Category Label: "inactive"
- Compound: "CNC(=O)c1cnn(-c2nc(N)c3ncn([C@@H]4O[C@H](CO)[C@@H](O)[C@H]4O)c3n2)c1"
  Category Label: "inactive"
- Compound: "Cc1cc(C)c(N)cc1C"
  Category Label: "inactive"
- Compound: "CC[N+](CC)(CCNC(=O)C(=O)NCC[N+](CC)(CC)Cc1ccccc1Cl)Cc1ccccc1Cl"
  Category Label: "inactive"
- Compound: "COc1ccccc1N1CCN(CCCCNC(=O)c2ccc(-c3ccc(C(C)=O)cc3)cc2)CC1"
  Category Label: "inactive"
- Compound: "C=C(C)C(=O)OCCOCCOC(=O)C(=C)C"
  Category Label: "inactive"
- Compound: "CC(C)(O)c1ccc(CNC(=O)c2cccnc2Oc2ccc3nonc3c2)cc1"
  Category Label: "inactive"
- Compound: "c1csc(SSc2cccs2)c1"
  Category Label: "inactive"
- Compound: "c1ccc(C[n+]2cccc3ccccc32)cc1"
  Category Label: "inactive"
- Compound: "Cc1cc(O)ccc1O"
  Category Label: "inactive"
- Compound: "N#CCCN(CCO)CCO"
  Category Label: "inactive"
- Compound: "COc1ccccc1NC(=O)c1cc2ccccc2cc1O"
  Category Label: "active"
- Compound: "Cc1cccc(N(C)C(=S)Oc2ccc3c(c2)CCC3)c1"
  Category Label: "inactive"

---

assay: qHTS assay to identify small molecule antagonists of the estrogen related receptor (ERR) signaling pathway from Tox21 library (AID 1224848); settings: ERR reporter cell line, luciferase antagonist mode, 18 h; series mostly up to 92.4 µM; also: nearly all actives have a fitted effect of over 50% in size; also: potency is read from the fitted curve at half-maximal effect
Inconclusive results are not listed. Calls of active or inactive are those of the source. The call rests on the fitted dose curve; in most records, active means well fitted inhibition curve with a large enough effect in the repeat runs; inconclusive means weak or mixed curves; inactive means no such curve, though single readings can be large or run the other way.
Observable: Potency

- Compound: "CC(=O)OCCN(CCOC(C)=O)c1ccc(N=Nc2ccc([N+](=O)[O-])cc2C#N)cc1"
  Observable: "Potency"
  Test Value: "61.1 µM (active)"
- Compound: "CC(C)=CCC/C(C)=C/CC/C(C)=C/CCC(=O)OC/C=C(\\C)CCC=C(C)C"
  Observable: "Potency"
  Test Value: "inactive"
- Compound: "CC/C=C1/OC(=O)c2ccccc21"
  Observable: "Potency"
  Test Value: "inactive"
- Compound: "CCCCC(CC)CN (stereo not drawn)"
  Observable: "Potency"
  Test Value: "inactive"
- Compound: "CC(C)=CC(=O)C=C(C)C"
  Observable: "Potency"
  Test Value: "inactive"
- Compound: "FC(F)(F)c1ccccc1Cl"
  Observable: "Potency"
  Test Value: "inactive"
- Compound: "NC1[C@H]2CN(c3nc4c(cc3F)c(=O)c(C(=O)O)cn4-c3ccc(F)cc3F)C[C@@H]12 (stereo partly drawn)"
  Observable: "Potency"
  Test Value: "inactive"
- Compound: "CCC(=O)C1CC(C(C)C)CC=C1C (stereo not drawn)"
  Observable: "Potency"
  Test Value: "inactive"
- Compound: "O=C1Cc2ccccc2N1c1c(Cl)cccc1Cl"
  Observable: "Potency"
  Test Value: "48.6 µM (active)"
- Compound: "O=c1[nH]c2ccc(Cl)cc2o1"
  Observable: "Potency"
  Test Value: "inactive"
- Compound: "CCCCCCNC(=O)n1cc(F)c(=O)[nH]c1=O"
  Observable: "Potency"
  Test Value: "inactive"
- Compound: "CC(C)(O)c1ccc(CNC(=O)c2cccnc2Oc2ccc3nonc3c2)cc1"
  Observable: "Potency"
  Test Value: "54.5 µM (active)"
- Compound: "CCC(C)(C)OC"
  Observable: "Potency"
  Test Value: "inactive"

meta.source: PubChem BioAssay (Tox21)
